Would you mind telling me the reported IC50 of each entry?
- Test system: human erythrocytes
- assay protocol: in vitro
- Assay type: cell-based
- experimental parameters: red cells of human
Square brackets hold non-standard residues; d marks the D form. Peptide text beside a SMILES is read from it. N(1-naphthylmethyl)Gly = O=C(O)CNCc1cccc2ccccc12; Nphe = O=C(O)CNCc1ccccc1; NBuGly = CCCCNCC(=O)O
Numbers only, in µM.

For orientation, consider the following solved cases.
compound	IC50, µM
CCCC[C@H](NC(=O)[C@H](CCCCN)NC(=O)[C@H](CCCCN)NC(=O)[C@@H](N)CCCCN)C(=O)N[C@@H](Cc1ccc2ccccc2c1)C(=O)N[C@@H](Cc1ccccc1)C(=O)N[C@@H](Cc1ccc2ccccc2c1)C(N)=O [Compound 18] (HELM PEPTIDE1{K.K.K.[Nle].[O=C([C@H](Cc1ccc2ccccc2c1)N[*:1])[*:2]].F.[O=C([C@H](Cc1ccc2ccccc2c1)N[*:1])[*:2]].[am]}$$$$V2.0)	95.6
CC(C)C[C@H](NC(=O)[C@H](CCCCN)NC(=O)[C@H](CCCCN)NC(=O)[C@@H](N)CCCCN)C(=O)N[C@@H](Cc1cccc2ccccc12)C(=O)N[C@@H](Cc1ccc(O)cc1)C(=O)N[C@@H](Cc1cccc2ccccc12)C(N)=O [Compound 19, Lys-Lys-Lys-Leu(1-Nal)Ala-Tyr-(1-Nal)Ala] (HELM PEPTIDE1{K.K.K.L.[O=C([C@H](Cc1cccc2ccccc12)N[*:1])[*:2]].Y.[O=C([C@H](Cc1cccc2ccccc12)N[*:1])[*:2]].[am]}$$$$V2.0)	51.1

Prompt: State recorded IC50 with human erythrocytes, entry CCCCN(CC(=O)N[C@@H](CCCCN)C(=O)N[C@@H](CCCCN)C(=O)N[C@@H](CCCCN)C(N)=O)C(=O)CN(Cc1cccc2ccccc12)C(=O)CN(Cc1ccccc1)C(=O)CNCc1cccc2ccccc12 [Compound 2] (H-[N(1-naphthylmethyl)Gly][Nphe][N(1-naphthylmethyl)Gly][NBuGly]KKK-NH2) , no comment.
Completion: 40

----------
- assay protocol: in vitro
- Format: cell-based, bovine
- experimental parameters: bovine
Square brackets hold non-standard residues; d marks the D form. Peptide text beside a SMILES is read from it. 2Nal = N[C@@H](Cc1ccc2ccccc2c1)C(=O)O; Nlys = NCCCCNCC(=O)O
readout name: hemolysis at 1 h, 150 µM

molecule	readout name	reported value
CC(C)C[C@@H](NC(=O)[C@H](CCCCN)NC(=O)[C@H](CCCCN)NC(=O)[C@@H](N)CCCCN)C(=O)N[C@H](Cc1ccc2ccccc2c1)C(=O)N[C@H](Cc1ccccc1)C(=O)N[C@H](Cc1ccc2ccccc2c1)C(N)=O [Compound 12] (HELM PEPTIDE1{K.K.K.[dL].[O=C([C@@H](Cc1ccc2ccccc2c1)N[*:1])[*:2]].[dF].[O=C([C@@H](Cc1ccc2ccccc2c1)N[*:1])[*:2]].[am]}$$$$V2.0)	hemolysis at 1 h, 150 µM	< 8%

# map each molecule to its hemolysis at 1 h, 150 µM
1. CC(C)C[C@@H](NC(=O)[C@H](CCCCN)NC(=O)[C@@H](N)CCCCN)C(=O)N[C@@H](CCCCN)C(=O)N[C@H](Cc1cccc2ccccc12)C(=O)N[C@H](Cc1ccccc1)C(=O)N[C@H](Cc1cccc2ccccc12)C(N)=O [Compound 10] (HELM PEPTIDE1{K.K.[dL].K.[O=C([C@@H](Cc1cccc2ccccc12)N[*:1])[*:2]].[dF].[O=C([C@@H](Cc1cccc2ccccc12)N[*:1])[*:2]].[am]}$$$$V2.0)
2. CC(C)C[C@H](NC(=O)CN(CCCCN)C(=O)CN(CCCCN)C(=O)CNCCCCN)C(=O)N[C@@H](Cc1ccc2ccccc2c1)C(=O)N[C@@H](Cc1ccccc1)C(=O)N[C@@H](Cc1ccc2ccccc2c1)C(N)=O [Compound 23] (H-[Nlys][Nlys][Nlys]L[2Nal]F[2Nal]-NH2)

Completion:
["< 8%", "11.1%"]

# map each molecule to its hemolysis at 1 h, 150 µM
1. CCCC[C@H](NC(=O)[C@H](CCCCN)NC(=O)[C@H](CCCCN)NC(=O)[C@@H](N)CCCCN)C(=O)N[C@@H](Cc1ccc2ccccc2c1)C(=O)N[C@@H](Cc1ccc(O)cc1)C(=O)N[C@@H](Cc1ccc2ccccc2c1)C(N)=O [Compound 22] (HELM PEPTIDE1{K.K.K.[Nle].[O=C([C@H](Cc1ccc2ccccc2c1)N[*:1])[*:2]].Y.[O=C([C@H](Cc1ccc2ccccc2c1)N[*:1])[*:2]].[am]}$$$$V2.0)
2. CC(C)C[C@@H](NC(=O)[C@@H](Cc1ccc2ccccc2c1)NC(=O)[C@@H](Cc1ccccc1)NC(=O)[C@H](N)Cc1ccc2ccccc2c1)C(=O)N[C@@H](CCCCN)C(=O)N[C@@H](CCCCN)C(=O)N[C@@H](CCCCN)C(N)=O [Compound 4] (HELM PEPTIDE1{[N[C@H](Cc1ccc2ccccc2c1)C(=O)[*:2]].[dF].[O=C([C@@H](Cc1ccc2ccccc2c1)N[*:1])[*:2]].[dL].K.K.K.[am]}$$$$V2.0)

Completion:
1. < 8%
2. < 8%
